- test_details: soluble on expression in E. coli; label from the status in PepcDB or PDB records
property_name: soluble on expression in E. coli

MGSDKIHHHHHHVSTAVSTPPTRLQCPICGSERFGDFRSRVNVRCSGCGSFERSRLLWLVLSQLELEATGRPFFHVAPEIGIAKLLHARLGERYRAFDFSPDIYAKAKIPVGRLDLCSDLSGMATGSVGGFCHVHVLEHVRCNAALVLQQINRVLAPGGYHVFGVPFWSRQYREDLSSELTDADRLSRFGHEDHVRSFGDQDFTVMFGGAFEGMEAIPLSRLIEVEAAARCNIPPRALTLNNSHSLFVYRKPIP; not soluble
MGSDKIHHHHHHMVWRDLLEVIYKLDPKPGLGLEIAKHVQPKHLGIIAYLALSCDNLGEALIRYHDFHRLIYDGSPLVVELQGRYGSIRWEATELHPTQLTDEIAIALVIQFLRLFMSHEDVQLHEVRFLNAAPKNIRVYEQYFQCPVRFSQPRTELLIPITEIHKPLSSADHTLQQLLVQQAQALLEQLPNSTQLDQRLQHSILTGLQKNQYQIEYIAAQLGLSVRQLQRHLQQQSTTFQERVQQVRFMLATEYLKDPHLSLQEIALLLCYSEQSAFQRAFKHWTKQTPQQWRDQFLDKE; not soluble
MGSDKIHHHHHHVAKQKFKITNWPTYNKALINRGSITFWLDDEAIQAWYESATPSSRGRPQRYSDLAITTVLVIKRVFRLTLRAAQGFIDSIFTLMNVPLRCPDYTSVSRRAKSVNVSFKTFTRGEIAHLVIDSTGLKVFGEGEWKVKKHGQERRRIWRKLHLAVDSNTHEIICADLSLNNVTDSEAFPGLIRQTHRKIRAAAADGAYDTRLCHDELRRKKISALIPPRKGAGYWPGEYADRNRAVANQRMTGSNARWKWTTDYNRRSIAETAMYRVKQLFGGSLTLRDYDGQVAEAMALVRALNKMTKAGMPESVRIA; not soluble
GPGSMSRTQTSSKSVPKNIAVYCRVRPPVPNEKGHTFQNISYDDSDSRAIAVARKSGTKALEKTYLFNRVFRPTATQKDVYETFAKGAVDAAFDGQHGVLFVYGQTGSGKTFTISNDEPNNEGVLQRSMRDIWNRIASDTANDYSCSVSYVQLYNEILTDLLDDAKGKVRIQMGSEGRGDVVMVSDSTGMAIEREVKDYKSTMACFQVGLARKEMASTSMNSTSSRSHTIFTLNIVKAKKVVAVTV; not soluble
MSLAAGRSSTSGLVAPDIENPFFPEIIRAFQESTNLSGLEAVGMNTAYDAQRTRGVIERPVSLQVPGAAFFTTQVDSGIKNALAARNIAGVYMDYGDAAPGISSIAVNYPEGMLQAITHLRDLGHRRIGLVGGPAHGAGAQRRKAAFLEGLKTNGIEGRATESDFSVQGGYFSCSKLLASYDCTAVIAANDLMAIGALHLAYDRQIAVPAQLSIIGFDDITFAKFTQPALTTVAVPRAEIGRVAFECRLALMKDPGAAGESHEIPTHLVVRQTTASVGEGHHHHHH; not soluble
SKELKVLVLCAGSGTSAQLANAINEGANLTEVRVIANSGAYGAHYDIMGVYDLIILAPQVRSYYREMKVDAERLGIQIVATRGMEYIHLTKSPSKALQFVLEHYQ; not soluble
MCMGIFKRVSNMVKAKVNNTLDEMENPIELLDQKIRDMEESLNKAKISSAQILGNAHEIEKKLQKARLESEDYDSKVKLAVKNGNDDLAKRALERKLDADKRESLQKSYEDASQKSKVIKDKLRTLEEEIEKTRAYRDEAAARFNNAEATKKVNEVLSNVDTGSNSINLDDIERKIERKEAMAEGLGDLRNEDSLEKEFEKLNETNLDDELAKYKNNIKLEHHHHHH; soluble
MANLKSLPVGDKAPEVVHMVIEVPRGSGNKYEYDPDLGAIKLDRVLPGAQFYPGDYGFIPSTLAEDGDPLDGLVLSTYPLLPGVVVEVRVVGLLLMEDEKGGDAKVIGVVAEDQRLDHIQDIGDVPEGVKQEIQHFFETYKALEAKKGKWVKVTGWRDRKAALEEVRACIARYKG; soluble
MGSDKIHHHHHHMSQILQNFIKQAQYNPLHSLEEWEEDLLNRYPDPHSIVKEGKTTQEYRNYETPTRETVKEFYRLNHINQTYNFVLEKEKNFLKFDKKEMSVWDAVEFLNQLVDDSDPDTEMDQLQHLLQTSEAIRADGHPDWMVLTGFFHDMGKVLCLFGEPQWATVGDTYPVGCAFSDKIVFSEFFQENPDYNNPNYNTKYGIYEPNCGLINVHISWGHDEYFYQMMKNYLPEPALYMLRYHSFYPQHRENAYKHLMDNHDREMFKWVKLFNPYDLYSKNPTPPDWQKLRPYYEDLVAKYLPATLKF; not soluble
AIASDKYIGDSHLEETGEEKQDSQEKEAVTPEKAEEQKLKAKYPNLGQKPGGSDFLMKRLQKGQKYFDSGDYNMAKAKIKNKQLPCAGPDKNLVTGDHIPTPQDLPQRKSSLVTSKLAGHVEDLHHV; soluble
TPTRFLVAFDGSATSRKTVEMVSRSPLLQGMQAHVLTAGSDAGEARQALQWAREQLAQGGFDAITHHAAERPADALAAYAGQHGIDMLVMGAYGHSRIRQLVLGSTTTEILSRVSLAVLILR; not soluble
LTNRGLKQVGWYLPAAQKTKKTAIVVHGFTNDKEDMKPYAMLFHDLGYNVLMPDNEAHGESEGNLIGYGWNDRLNVMAWTDQLIKENPESQITLFGLSMGAATVMMASGERLPAQVTSLIEDCGYASVWDELKFQAKAMYNLPAFPLLYEVSALSKIRAGFSYGEASSVKQLAKNKRPTLFIHGDKDDFVPTKMVYDNYKATKGPKEILIVKGAKHAKSFETNPEQYQKKIAAFLKKVEK; not soluble
